Test system: PDL Fibroblasts
Experiment: SRB cytotoxicity on normal periodontal ligament fibroblasts, selective cytotoxicity
Format: cell-based, Human
Details: normal fibroblasts, SRB, 72 h, 0.1-200 μg/mL range, mean ± SD; NI = lack of cytotoxicity in range
quantity_kind: IC50

>  <compound>
CCn1cc(C(=O)O)c(=O)c2cc(F)c3c(nnn3-c3ccccc3OC)c21 [13a]

>  <result>
276 µM

$$$$
>  <compound>
N.N.[Cl][Pt][Cl] [Cisplatin, cisplatin, reference compound]

>  <result>
0.71 µM

$$$$
>  <compound>
CCn1cc(C(=O)O)c(=O)c2cc(F)c3c(nnn3-c3cccc(OC)c3)c21 [13b]

>  <result>
332 µM

$$$$

---

Entries and their measured Selectivity index SI (A375.S2) follow.
Tested on: PDL Fibroblasts
Assay: SRB cytotoxicity on normal periodontal ligament fibroblasts, selective cytotoxicity
Type: cell-based, Human
Settings: IC50 on PDL fibroblasts divided by IC50 on A375.S2
Experimental: The cytotoxicity measurements were determined using Sulforhodamine B (SRB) colorimetric assay for cytotoxicity screening. […] Selectivity ratio as indicative factor of the safety of compounds was calculated by dividing IC50 of tested compound on normal fibroblasts by IC50 of the same compound on specific pathological cell line (Hoffman et al., 2011).

>  <molecule>
Nc1c(NC2CCCCC2)c(F)cc2c(=O)c(C(=O)O)cn(C3CC3)c12 [8a]

>  <Selectivity index SI (A375.S2)>
12.48

$$$$
>  <molecule>
CCc1ccc(-n2nnc3c4c(cc(F)c32)c(=O)c(C(=O)O)cn4C2CC2)cc1 [5d]

>  <Selectivity index SI (A375.S2)>
1.33

$$$$
>  <molecule>
CCc1ccc(Nc2c(F)cc3c(=O)c(C(=O)O)cn(C4CC4)c3c2[N+](=O)[O-])cc1 [3d]

>  <Selectivity index SI (A375.S2)>
1.95

$$$$
>  <molecule>
CCOC(=O)c1cn(C2CC2)c2c([N+](=O)[O-])c(Nc3ccc(F)cc3)c(F)cc2c1=O [2H]

>  <Selectivity index SI (A375.S2)>
2.07

$$$$

---

Reported IC50 is given for each of the following compounds.
Test system: HELA cell line
Experiment: SRB cytotoxicity assay, HELA cervical cancer cell line
quantity_kind: IC50 (µM)

>  <compound>
CCn1cc(C(=O)O)c(=O)c2cc(F)c3c(nnn3-c3ccccc3OC)c21 [13a]

>  <quantity_kind>
IC50

>  <number>
52.6

$$$$
>  <compound>
CCn1cc(C(=O)O)c(=O)c2cc(F)c3c(nnn3-c3cccc(OC)c3)c21 [13b]

>  <quantity_kind>
IC50

>  <number>
41.9

$$$$

---

Reported pIC50 values are given for each entry in this list.
Tested on: A549 cell line
Experiment: SRB cytotoxicity assay, A549 lung cancer cell line
pIC50: −log10 of the molar value.

>  <compound>
CCn1cc(C(=O)O)c(=O)c2cc(F)c3c(nnn3-c3ccccc3OC)c21 [13a]

>  <pIC50>
3.61

$$$$
>  <compound>
CCn1cc(C(=O)O)c(=O)c2cc(F)c3c(nnn3-c3cccc(OC)c3)c21 [13b]

>  <pIC50>
3.60

$$$$

---

Test system: HELA cell line
Test: SRB cytotoxicity assay, HELA cervical cancer cell line
Conditions: Homo sapiens, HeLa, 72 h, read-out: Cytotoxicity IC50 value, HELA cell line, SRB, 72 h, 0.1-200 μg/mL range, mean ± SD, value in brackets
Procedure: All reagents and chemicals of analytical grade were obtained from Sigma (Dorset, UK); unless stated otherwise. All chemicals, reagents and solvents (of analytical grade) were used directly without further purification. MCF7 cell line ATCC® HTB-22™, T47D cell line ATCC® HTB-133™, K562 cell line ATCC® CCL-243™, Panc1 cell line ATCC® CRL-1469™. […] The cytotoxicity measurements were determined using Sulforhodamine B (SRB) colorimetric assay for cytotoxicity screening. […]

>  <compound>
COc1ccccc1-n1nnc2c3c(cc(F)c21)c(=O)c(C(=O)O)cn3C1CC1

>  <uom>
mg/L

>  <IC50>
124

$$$$
>  <compound>
CCn1cc(C(=O)O)c(=O)c2cc(F)c(Nc3ccccc3OC)c(N)c21 [12a]

>  <uom>
mg/L

>  <IC50>
9.45

$$$$
>  <compound>
CCCCc1ccc(Nc2c(F)cc3c(=O)c(C(=O)O)cn(C4CC4)c3c2N)cc1

>  <uom>
mg/L

>  <IC50>
27.6

$$$$
>  <compound>
CCn1cc(C(=O)O)c(=O)c2cc(F)c(Nc3cccc(OC)c3)c(N)c21 [12b]

>  <uom>
mg/L

>  <IC50>
83.6

$$$$
>  <compound>
O=C(O)c1cn(C2CC2)c2c([N+](=O)[O-])c(NC3CCCCC3)c(F)cc2c1=O

>  <uom>
mg/L

>  <IC50>
0.16

$$$$
>  <compound>
O=C(O)c1cn(C2CC2)c2c(cc(F)c3c2nnn3C2CCCCC2)c1=O

>  <uom>
mg/L

>  <IC50>
27.6

$$$$
>  <compound>
CCn1cc(C(=O)O)c(=O)c2cc(F)c(Nc3ccc(OC)cc3OC)c(N)c21 [12c]

>  <uom>
mg/L

>  <IC50>
15.6

$$$$
>  <compound>
CCCCCCc1ccc(Nc2c(F)cc3c(=O)c(C(=O)O)cn(C4CC4)c3c2[N+](=O)[O-])cc1

>  <uom>
mg/L

>  <IC50>
3.48

$$$$
>  <compound>
CCCCc1ccc(-n2nnc3c4c(cc(F)c32)c(=O)c(C(=O)O)cn4C2CC2)cc1

>  <uom>
mg/L

>  <IC50>
153

$$$$
>  <compound>
CCCCCCc1ccc(Nc2c(F)cc3c(=O)c(C(=O)O)cn(C4CC4)c3c2N)cc1

>  <uom>
mg/L

>  <IC50>
13.4

$$$$
>  <compound>
COc1ccc(-n2nnc3c4c(cc(F)c32)c(=O)c(C(=O)O)cn4C2CC2)c(OC)c1

>  <uom>
mg/L

>  <IC50>
71.8

$$$$
>  <compound>
CCOC(=O)c1cn(C2CC2)c2c([N+](=O)[O-])c(Nc3ccc(F)cc3)c(F)cc2c1=O

>  <uom>
mg/L

>  <IC50>
647

$$$$
>  <compound>
CCn1cc(C(=O)O)c(=O)c2cc(F)c(Nc3cccc(OC)c3)c([N+](=O)[O-])c21 [11b]

>  <uom>
mg/L

>  <IC50>
79

$$$$
>  <compound>
CCn1cc(C(=O)O)c(=O)c2cc(F)c(Nc3ccccc3OC)c([N+](=O)[O-])c21 [11a]

>  <uom>
mg/L

>  <IC50>
41.4

$$$$
>  <compound>
CCn1cc(C(=O)O)c(=O)c2cc(F)c3c(nnn3-c3ccc(OC)cc3OC)c21 [13c]

>  <uom>
mg/L

>  <IC50>
179

$$$$
>  <compound>
COc1ccc(-n2nnc3c4c(cc(F)c32)c(=O)c(C(=O)O)cn4C2CC2)cc1

>  <uom>
mg/L

>  <IC50>
179

$$$$
>  <compound>
COc1ccccc1Nc1c(F)cc2c(=O)c(C(=O)O)cn(C3CC3)c2c1N

>  <uom>
mg/L

>  <IC50>
15.5

$$$$
>  <compound>
CCOC(=O)c1cn(C2CC2)c2c([N+](=O)[O-])c(Cl)c(F)cc2c1=O

>  <uom>
mg/L

>  <IC50>
43.3

$$$$

Where do the numbers come from? From paper PMC8325119.
